Test system: worker ants of Coptotermes formosanus
protocol.text: Damage (ingestion) inhibition test (filter paper)
Assay type: in vivo
Design: key: 0: No damage; 1: Damage of ½ or less; 2: Damage of ½ to ¾; 3: Damage of ¾ with some remainder; 4: Complete damage
run.parameters: filter paper immersed in 1 w/w % solution in acetone (hispidin in methanol); 100 worker ants; Control 4
endpoint.name: Damage degree after 1 week
Enter the number alone.

Documented Damage degree after 1 week of COc1ccc(/C=C/c2cc(OC)cc(=O)o2)cc1 [Yangonin] : 1

So, COc1cc(/C=C/c2ccccc2)oc(=O)c1 [5,6-Dehydrokawain] ? Its Damage degree after 1 week was 1

Item: COC1=CC(=O)O[C@@H](/C=C/c2ccccc2)C1 [Kawain] | Damage degree after 1 week: 1

Sure, the documented Damage degree after 1 week for COC1=CC(=O)O[C@@H](CCc2ccccc2)C1 [7,8-Dihydrokawain] is 0

Looking up COC1=CC(=O)O[C@@H](/C=C/c2ccc3c(c2)OCO3)C1 [Methysticin] , I see its Damage degree after 1 week listed as 0

Just so you know, measured Damage degree after 1 week for O=c1cc(O)cc(/C=C/c2ccc(O)c(O)c2)o1 [Hispidin, reference compound] came out at 1

# Damage degree after 1 week (compound: COC1=CC(=O)OC(CCc2ccc(OC)cc2)C1 (centres unmarked) [5,6,7,8-Tetrahydroyangonin] ) is 0

For COC1=CC(=O)O[C@@H](CCc2ccc3c(c2)OCO3)C1 [7,8-Dihydromethysticin] the compound record lists Damage degree after 1 week as 0
